measurement.target: recombinant human EP-2 receptor (Homo sapiens, UniProt P43116)
Construct: stably transfected with full length cDNA encoding human Prostaglandin E2
Sequence (P43116 whole entry): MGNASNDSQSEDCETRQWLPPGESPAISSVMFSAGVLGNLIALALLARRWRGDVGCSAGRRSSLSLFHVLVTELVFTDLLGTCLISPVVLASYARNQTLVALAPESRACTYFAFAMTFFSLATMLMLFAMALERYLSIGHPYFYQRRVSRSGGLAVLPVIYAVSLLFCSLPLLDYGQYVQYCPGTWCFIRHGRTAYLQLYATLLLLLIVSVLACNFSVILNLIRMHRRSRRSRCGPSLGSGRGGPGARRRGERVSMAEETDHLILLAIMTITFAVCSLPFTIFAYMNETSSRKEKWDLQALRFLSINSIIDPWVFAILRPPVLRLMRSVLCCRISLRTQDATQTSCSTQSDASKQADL
test.method.notes: In vitro antagonist potency against recombinant human prostaglandin E2 (EP-2) receptor in CHO cells (cAMP)
test.settings: CHO cells expressing recombinant human EP-2 receptor, stimulated with PGE2 5 nM; cAMP readout; Ki from IC50 by Cheng-Prusoff; read-out: EP2 Ki
Description: 1.0 Measurement of In Vitro Antagonist Potency (IC50) of Compounds Against Recombinant Human Prostaglandin E2 Receptor in CHO Cells. […] A Chinese hamster ovary (CHO) cell line stably transfected with full length cDNA encoding human Prostaglandin E2 was established using standard molecular biology methods. […] IC50 estimates were determined as the concentration of test compound giving an effect half way between the bottom and top asymptotes of the sigmoidal dose response curve. […]
quantity.name: pKi
One number for each entry, as −log10 of the molar value.

compound.smiles: CCc1ccccc1NC(=O)N1CC(Cn2nnc(-c3cccc(F)c3)n2)(C(=O)O)C1
readout.number: 6.36

compound.smiles: COc1ccc(-c2nnn(CC3(C(=O)O)CN(C(=O)c4c(F)cccc4F)C3)n2)cc1OC
readout.number: 6.64

Hi! Can you tell me pKi for each of these compounds?
1. O=C(c1ccc(F)cc1)N1CC(Cn2nnc(-c3cc(C(F)(F)F)cc(C(F)(F)F)c3)n2)(C(=O)O)C1
2. O=C(c1ccc(F)cc1)N1CC(Cn2nnc(-c3ccc(Cl)cc3Cl)n2)(C(=O)O)C1

Key:
1. 6.88
2. 7.57

====

measurement.target: recombinant human EP-2 receptor (Homo sapiens)
Construct: stably transfected with full length cDNA encoding human Prostaglandin E2
test.method.notes: In vitro antagonist potency against recombinant human prostaglandin E2 (EP-2) receptor in CHO cells (cAMP)
test.settings: CHO cells expressing recombinant human EP-2 receptor, stimulated with PGE2 5 nM; cAMP readout; Ki from IC50 by Cheng-Prusoff; read-out: EP2 Ki
pKi: −log10 of the molar value.
Classify as follows. Reported pKi greater than or equal to 7: label 1. Reported pKi below: label 0.

Known results for compounds:
compound.smiles: CCOc1ccccc1C(=O)N1CC(Cn2nnc(-c3cccc(F)c3)n2)(C(=O)O)C1
label.class: label 0

compound.smiles: O=C(c1ccc(Cl)cc1)N1CC(Cn2nnc(-c3ccc(Cl)c(Cl)c3)n2)(C(=O)O)C1
label.class: label 1

compound.smiles: Cc1ccc(-c2nnn(CC3(C(=O)O)CN(C(=O)c4ccc(Cl)cc4)C3)n2)cc1
label.class: label 1

compound.smiles: O=C(c1ccc(Cl)cc1)N1CC(Cn2nnc(Cc3ccc(C(F)(F)F)cc3)n2)(C(=O)O)C1
label.class: label 0

compound.smiles: CCc1ccc(-c2nnn(CC3(C(=O)O)CN(C(=O)c4ccc(F)cc4)C3)n2)cc1
label.class: label 1

compound.smiles: O=C(c1ccc(F)cc1)N1CC(Cn2nnc(-c3ccccc3C(F)(F)F)n2)(C(=O)O)C1
label.class: label 0

Exercise: Does Cc1ccc(-c2nnn(CC3(C(=O)O)CN(C(=O)c4ccc(Cl)cc4)C3)n2)cc1Cl have a reported pKi of at least 7?
Key: label 1

Exercise: Check the entry COc1cccc(C(=O)N2CC(Cn3nnc(Cc4c(F)cccc4Cl)n3)(C(=O)O)C2)c1 : does pKi equal or exceed 7?
Key: label 0

Exercise: Entry O=C(c1ccc(F)cc1)N1CC(Cn2nnc(-c3cccc(Cl)c3Cl)n2)(C(=O)O)C1 : is its pKi no less than 7?
Key: label 1

Exercise: Is the recorded value of pKi equal to or greater than 7 for this compound? COc1ccccc1-c1nnn(CC2(C(=O)O)CN(C(=O)c3ccc(F)cc3)C2)n1
Key: label 0

Exercise: Check if pKi >= 7 (inclusive). Item: O=C(c1ccc(F)cc1)N1CC(Cn2nnc(-c3cc(F)cc(Cl)c3)n2)(C(=O)O)C1
Key: label 1

Exercise: Item O=C(c1c(F)cccc1F)N1CC(Cn2nnc(Cc3ccc(C(F)(F)F)cc3)n2)(C(=O)O)C1 with pKi of 7 or above?
Key: label 0
